target: IMP-1 (Serratia marcescens, UniProt P52699); test: biochemical; type: biochemical; settings: CCF2-FA substrate, 2 hours at 25° C; read-out: IMP-1 IC50
Sequence (P52699 whole entry, looked up, species assumed): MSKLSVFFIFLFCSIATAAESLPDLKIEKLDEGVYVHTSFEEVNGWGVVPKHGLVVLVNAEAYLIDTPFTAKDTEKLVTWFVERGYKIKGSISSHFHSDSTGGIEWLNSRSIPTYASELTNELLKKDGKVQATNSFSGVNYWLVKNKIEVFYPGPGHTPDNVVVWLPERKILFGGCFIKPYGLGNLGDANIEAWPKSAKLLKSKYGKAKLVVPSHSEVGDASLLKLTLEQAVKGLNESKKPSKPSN
Measured log10 IC50 accompanies every entry in the list below.
Note the log scale: values are log10 of IC50 expressed in nM.

Illustrative cases are given below, each with its answer.
compound	target_system	log10 IC50
NCCS(=O)(=O)c1ccc(-c2cccc(N3CCCC3=O)n2)c(-c2nnn[nH]2)c1S(N)(=O)=O.O=C(O)C(F)(F)F [Example 147, 2,2,2-trifluoroacetate]	IMP-1 (Serratia marcescens, UniProt P52699)	0.61
NCCS(=O)(=O)c1ccc(-c2ccc3[nH]c(=O)oc3c2)c(-c2nnn[nH]2)c1S(N)(=O)=O.O=C(O)C(F)(F)F [Example 155, 2,2,2-trifluoroacetate]	IMP-1 (Serratia marcescens, UniProt P52699)	-0.65
N=C(N)c1nc2c(-c3ccc(S(=O)(=O)C4CNC4)c(S(N)(=O)=O)c3-c3nnn[nH]3)cccc2s1	IMP-1 (Serratia marcescens, UniProt P52699)	0.42

Noted for NS(=O)(=O)c1c(S(=O)(=O)C2CNC2)ccc(-c2cccc(C3CCC(=O)N3)c2)c1-c1nnn[nH]1.O=C(O)C(F)(F)F (stereo not drawn) [Example 125, 2,2,2-trifluoroacetate] : its log10 IC50 reads 0.72

Noted for NCCS(=O)(=O)c1ccc(-c2cccc3cn[nH]c23)c(-c2nnn[nH]2)c1S(N)(=O)=O.O=C(O)C(F)(F)F [Example 173, 2,2,2-trifluoroacetate] : its log10 IC50 reads -0.80

Noted for CC(N)CS(=O)(=O)c1ccc(-c2cccc3sc(N)nc23)c(-c2nn[nH]n2)c1S(N)(=O)=O (stereo not drawn) : its log10 IC50 reads -0.82
